target: SHP2-C SH2; assay: SH2 binding enrichment of the phosphorylated peptide, bacterial display (enrichment ratio); higher = better substrate or ligand; peptides without Tyr show the background;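 note: peptide library displayed on the E. coli surface as eCPX fusions, selected cells deep-sequenced, score is each peptide's frequency after selection divided by its frequency in the input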
Outcome measure: SH2 binding enrichment

[[record]]
query_sequence = "MENFIYESMRY [CYP19A1_Y361]"
outcome_measure = "SH2 binding enrichment"
numeric_value = 0.553


(I) LKMLVYMDMSK [LRRC7_Y234_L235M]
(II) KPRKLYTIKKP [BRD2_Y715_P714L]
// query I'm curious, which of these has a smaller SH2 binding enrichment number: I or II ? Pick one and reply with its label.
// result I
(I: 0.742, II: 1.19)

(a) NQNIGYELGHR [KCNN3_Y268_K269E]
(b) KPRKPYTIKKP [BRD2_Y715]
// query Compare reported SH2 binding enrichment values for a and b . Which is lower? Selection: enter the item's label.
// result a
(a: 0.683, b: 1.73)

(a) STEEQYRICQV [EFHC1_Y115_R118C]
(b) QRASDYFSQQM [GBP6_Y333_A331S_YF]
(c) DIPIRYSIMGV [CDH4_Y205_T208M]
// query Sort these sequences on SH2 binding enrichment so the largest reading comes first. # output: labels, in the requested order
// result c, b, a

* * *

Item-by-item account of phosphorylation enrichment
target: Jak2 (UniProt O60674); test: phosphorylation enrichment, bacterial display (enrichment ratio); higher = better substrate or ligand; peptides without Tyr show the background
Sequence (O60674 whole entry, looked up): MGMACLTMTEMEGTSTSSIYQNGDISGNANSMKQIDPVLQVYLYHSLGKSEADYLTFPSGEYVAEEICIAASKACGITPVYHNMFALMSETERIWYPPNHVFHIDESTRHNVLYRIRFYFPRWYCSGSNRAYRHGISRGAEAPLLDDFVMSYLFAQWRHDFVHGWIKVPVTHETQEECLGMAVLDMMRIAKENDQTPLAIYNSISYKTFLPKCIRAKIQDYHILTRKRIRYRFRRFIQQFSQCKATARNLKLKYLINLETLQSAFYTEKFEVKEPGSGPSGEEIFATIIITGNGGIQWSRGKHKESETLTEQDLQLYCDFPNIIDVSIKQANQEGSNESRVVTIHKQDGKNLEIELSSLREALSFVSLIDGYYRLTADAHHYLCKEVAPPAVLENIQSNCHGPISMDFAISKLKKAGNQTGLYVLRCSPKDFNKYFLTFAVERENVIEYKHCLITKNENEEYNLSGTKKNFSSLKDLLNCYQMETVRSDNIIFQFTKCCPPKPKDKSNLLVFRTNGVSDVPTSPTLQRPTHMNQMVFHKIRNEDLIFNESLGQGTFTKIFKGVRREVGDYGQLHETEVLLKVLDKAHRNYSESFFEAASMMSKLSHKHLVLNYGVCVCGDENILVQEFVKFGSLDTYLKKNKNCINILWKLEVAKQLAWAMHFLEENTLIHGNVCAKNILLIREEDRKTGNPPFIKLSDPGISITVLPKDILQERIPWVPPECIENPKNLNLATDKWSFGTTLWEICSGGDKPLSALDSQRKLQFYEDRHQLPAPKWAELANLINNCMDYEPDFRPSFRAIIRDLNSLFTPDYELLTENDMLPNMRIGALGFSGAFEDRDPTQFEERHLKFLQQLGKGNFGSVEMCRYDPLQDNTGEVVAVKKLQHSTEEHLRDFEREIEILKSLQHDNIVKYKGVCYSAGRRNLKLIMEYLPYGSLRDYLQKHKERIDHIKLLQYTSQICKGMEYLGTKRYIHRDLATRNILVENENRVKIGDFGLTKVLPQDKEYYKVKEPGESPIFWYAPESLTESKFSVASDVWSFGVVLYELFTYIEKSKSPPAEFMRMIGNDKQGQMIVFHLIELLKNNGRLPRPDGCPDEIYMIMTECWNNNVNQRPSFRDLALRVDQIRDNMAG
Lab note: jot the number down without any unit.

Use the examples below as a reference point.
[[record]]
query_sequence = "RLRVVYPWTQR [HBB_Y36_L33R]"
outcome_measure = "phosphorylation enrichment"
numeric_value = 0.494

[[record]]
query_sequence = "KNEKVYTRHGV [FLOT1_Y56_S52N]"
outcome_measure = "phosphorylation enrichment"
numeric_value = 0.392

[[record]]
query_sequence = "ETLLFYGCRRS [POR_Y564_YF]"
outcome_measure = "phosphorylation enrichment"
numeric_value = 0.659


Please turn your attention to the following entry.
// query Provide phosphorylation enrichment value for the following sequence: ASYGPNTRVQS [FOXL2_Y258_Y258N]
// result 0.515

* * *

test system: Fer (mouse); assay: phosphorylation enrichment, bacterial display (enrichment ratio); higher = better substrate or ligand; peptides without Tyr show the background
Outcome measure: phosphorylation enrichment
Lab note: record just the number, no unit beside it.

Some sequences with recorded phosphorylation enrichment:
[[record]]
query_sequence = "AHPIIYDIIEA [PYKtide_D_2014]"
numeric_value = 11.9

[[record]]
query_sequence = "HKNNNYEPSLF [BRCA2_Y57_N60S]"
numeric_value = 0.791

[[record]]
query_sequence = "FADIAYNYRHG [PAH_Y166]"
numeric_value = 0.456

[[record]]
query_sequence = "LENSTYQYIHV [CRB1_Y760_R764H]"
numeric_value = 17.8


// query Name the recorded phosphorylation enrichment of the sequence listed here: HAVFVYDICHV [TWNK_Y508_YF]
// result 3.38

// query Give phosphorylation enrichment for TGNGYYFRVFS [MYBPC3_Y1136_I1131T]
// result 0.594

// query # return recorded phosphorylation enrichment for entry KDPPDYKFQPR [SOX9_Y172_H169P_YF]
// result 0.449

// query Indicate its recorded phosphorylation enrichment; the sequence in question is PGAGHYEDTIL [ALK_Y1604]
// result 6.12
